# system: 5-hydroxytryptamine receptor 2A (Homo sapiens)
# method.summary: 5-hydroxytryptamine receptor 2A (HTR2A) small molecule antagonists, cell-based qHTS assay (AID 1963586); note: nearly all actives have a fitted effect of over 45% in size; note: potency is the fitted concentration of half-maximal effect
# experimental.parameters: HTR2A-CHO cells, DOI-induced calcium flux, fluorescence; series mostly up to 61.5 µM
Results filed as inconclusive are left out. Activity calls are given as the source filed them. Calls come from the whole dose curve.
reported.metric: Potency

Worked cases, Potency given:
1. CN1CCc2cc(Cl)c(O)cc2[C@H]2c3ccccc3CC[C@@H]21 : 32.6 nM (active)
2. C[N+]1(CCF)[C@@H]2CC[C@H]1CC(OC(=O)C(O)(c1ccccc1)c1ccccc1)C2 (stereo partly specified) : inactive
3. Clc1cc(Cl)c(Cl)c(Cl)c1 : inactive
4. Clc1cc(Cl)c(-c2cc(Cl)c(Cl)cc2Cl)cc1Cl : inactive
5. C[C@]12CC[C@H]3[C@@H](CCC4=CC(=O)CC[C@@H]43)[C@@H]1CC[C@@H]2OC(=O)CCC1CCCCC1 : inactive

Now for another entry.
Input O=C(NC(=O)c1c(F)cccc1F)Nc1cc(Cl)c(F)c(Cl)c1F . Output Potency: inactive

###

# method.summary: cAMP Responsive Elements (CRE) small molecule antagonists, cell-based qHTS assay (AID 1963591)
# experimental.parameters: CRE-bla HEK293T, beta-lactamase FRET ratio; series mostly up to 92.4 µM
Inconclusive results are not listed. Activity calls are given as the source filed them. Calls come from the whole dose curve; as a rule, active = well fitted inhibition curve with a large enough effect in the signal ratio in the repeat runs (not every such curve was filed as active); inconclusive = weak or mixed curves, or effect the other way; inactive = flat fitted curve, though single readings scatter; the % refers to the signal ratio.
reported.metric: outcome

1. CCOP(=S)(OCC)SCSCC : inactive
2. Cc1nc(N(C)C)nc(OC(=O)N(C)C)c1C : inactive
3. CCCSC(=O)N(CCC)CCC : inactive

###

# system: 5-hydroxytryptamine receptor 2A (Homo sapiens)
# method.summary: 5-hydroxytryptamine receptor 2A (HTR2A) small molecule agonists, cell-based qHTS assay (AID 1963587); note: nearly all actives have a fitted effect of over 30% in size
# experimental.parameters: HTR2A-CHO cells, calcium flux fluorescence, agonist mode; series mostly up to 76.8 µM
Records with an inconclusive call do not appear. The source made the active and inactive calls. Calls come from the whole dose curve. Peptide text beside a SMILES is read from it.
Pick one: active, inactive

1) COc1cc(CC#N)cc(OC)c1OC : inactive
2) CC(=O)N[C@@H](CO)C(=O)N[C@@H](CC(=O)O)C(=O)N[C@@H](CCCCN)C(=O)N1CCC[C@H]1C(=O)O (Ac-SDKP-OH) : inactive
3) Clc1cccc2ccccc12 : inactive
4) O=C(NC(=O)c1cc(F)c(F)cc1Cl)Nc1cc(F)ccc1N1CCC(C(=O)O)CC1 : inactive
5) O=C(N[C@H]1CN2CCC1CC2)c1ccc2c(c1)OCCO2 : inactive
6) c1csc(-c2ccc(-c3cccs3)s2)c1 : inactive
7) CCCN(CCC)c1c([N+](=O)[O-])cc(C(F)(F)F)cc1[N+](=O)[O-] : inactive
8) N#C/C(N)=C(/N)C#N : inactive

Assay result, entry O=C(O)C(O)C(O)C(=O)O (stereo unspecified) — outcome?
inactive

Please share the test call associated with O=C1Nc2ccc(Cl)cc2C(c2ccccc2)=NC1O (stereo unspecified) .
inactive

Could you check what this test reported for Cc1ccc(-c2c(Cl)nc(C#N)n2S(=O)(=O)N(C)C)cc1 ?
inactive

I'd appreciate the recorded outcome for Clc1ccc(Oc2ccccc2)cc1 from this test.
inactive

# outcome recorded in this test, key = CCCCP(CCCC)CCCC
inactive

What outcome does the record of this test show for CCCC[P+](CC)(CCCC)CCCC (tested in a mixture with another compound) ?
inactive

Hi, sorry to bother you, what did the test record for CC1C(=O)C[C@]2(C(C)C)C[C@H]12 (stereo partly specified) ?
inactive

Lab log entry: CC(C)Oc1cccc(NC(=O)c2ccccc2C(F)(F)F)c1 — outcome as called in the assay?
inactive

Just curious, what result did CCOP(=S)(OCC)Oc1ncn(-c2ccccc2)n1 get here?
inactive

For CC[C@H]1C[C@@H]2C[C@H]3c4[nH]c5ccc(OC)cc5c4CCN(C2)[C@@H]13 , what call appears in the results of this test?
inactive

What is the recorded call for this compound in the test? CCCCCCCC(=O)Cl
inactive

What call does the record list for CCCCCC[N+](=O)[O-] ?
inactive

Hi, sorry to bother you, what did the test record for CCC(C(N)=O)N1CCCC1=O (stereo unspecified) ?
inactive

Could you please tell me the result logged for CC(Cl)(Cl)[N+](=O)[O-] in this assay?
inactive

Short answer needed: outcome of this test for CCC(=O)c1ccc(Cl)cc1 ?
inactive

Please share the test call associated with C[C@H]1CC[C@@H]2[C@@H](C)[C@H]3[C@H](C[C@H]4[C@@H]5CC=C6CC(O[C@@H]7O[C@H](CO)[C@H](O)[C@H](O[C@@H]8O[C@H](CO)[C@@H](O)[C@H](O)[C@H]8O)[C@H]7O[C@H]7O[C@@H](C)[C@H](O)[C@@H](O)[C@H]7O)CC[C@]6(C)[C@H]5CC[C@]34C)N2C1 (stereo partly specified) .
active

Recorded test outcome, item N#CSCc1ccccc1
inactive

###

# method.summary: p53 small molecule agonists, cell-based qHTS assay: qHTS cell viability counter screen (AID 1963581); note: nearly all actives have a fitted effect of over 45% in size
# experimental.parameters: p53RE-bla HCT-116 viability, ATP luminescence, 16 h; series mostly up to 66 µM
Results filed as inconclusive are left out. Active and inactive are the calls of the source. The call rests on the fitted dose curve.
Pick from yes for active, no for inactive when you respond.

Study these solved cases before continuing.
1) CCCCC(O)(Cn1cncn1)c1ccc(Cl)cc1Cl (centres undefined) : no
2) CC(C)(O)c1cnn2c(-c3ccc(F)c(-c4c(F)cccc4C#N)c3)cnc2n1 : no
3) Oc1ccc([C@H]2CNCc3c2ccc(O)c3O)cc1O : no
4) CCS(=O)(=O)C(C)(C)S(=O)(=O)CC : no
5) CC(C)(C)NC[C@H](O)c1ccc(O)cc1Cl : no
6) CC(=O)C(Cl)(Cl)Cl : yes
7) COc1ccc(Cc2nccc3cc(OC)c(OC)cc23)cc1OC : no
8) COc1cc(C[C@@H](C)N)c(OC)cc1Br : no

Proceed to the following item.
GET /call?item= CCNc1nc(NC(C)C(C)C)nc(SC)n1 (centres undefined) returns the recorded outcome of this test.
no

###

# method.summary: p53 small molecule agonists, cell-based qHTS assay with rat liver microsomes: qHTS cell viability counter screen (AID 1963580); note: nearly all actives have a fitted effect of over 45% in size
# experimental.parameters: p53RE-bla HCT-116 + rat microsomes, ATP viability, 16 h; series mostly up to 66 µM
Records with an inconclusive call do not appear. The source made the active and inactive calls. The call rests on the fitted dose curve.
Choose one outcome from this list and give only that: active, inactive

The examples below pair each entry with its known result.
1) ClC1=C(Cl)[C@]2(Cl)[C@@H]3[C@H]4C[C@H]([C@@H]5O[C@H]45)[C@@H]3[C@@]1(Cl)C2(Cl)Cl : inactive
2) O=[N+]([O-])c1cccc2cccc([N+](=O)[O-])c12 : inactive
3) CN1CCN(C(=O)O[C@H]2c3nccnc3C(=O)N2c2ccc(Cl)cn2)CC1 : inactive
4) CCCSP(=S)(OCC)Oc1ccc(SC)cc1 (stereo unspecified) : inactive
5) CC1(C)CCC(Cc2ccc(Cl)cc2)C1(O)Cn1cncn1 (stereo unspecified) : inactive
6) O=[N+]([O-])O.O=[N+]([O-])O.[Cd] : inactive
7) CC(C)(C)C(O)/C(=C\c1ccc(Cl)cc1Cl)n1cncn1 (stereo unspecified) : inactive
8) BrCCCCBr : inactive

Please indicate how the test categorized CN(C)CCc1c[nH]c2ccccc12 .
inactive

State the result this test recorded for OCCCBr .
active

Recorded test outcome, item CC(C)N(C(=O)SC/C(Cl)=C/Cl)C(C)C
inactive

What outcome does the record of this test show for O=C(NC(=O)c1c(F)cccc1F)Nc1ccc(OC(F)(F)C(F)OC(F)(F)F)c(Cl)c1 (stereo unspecified) ?
inactive

Hello, I am checking results. What call was entered for COc1ccc2c(c1OC)C(=O)O[C@H]2[C@@H]1c2cc3c(cc2CCN1C)OCO3 ?
inactive

Which result was noted for this molecule in the test: CCCCOCN(C(=O)CCl)c1c(CC)cccc1CC
inactive

Record lookup: outcome of this test for CO/N=C(\C(=O)OC)c1ccccc1CO/N=C(\C)c1cccc(C(F)(F)F)c1 ?
inactive

Which outcome was assigned to CC(=O)[O][Pb]([c]1ccccc1)([c]1ccccc1)[c]1ccccc1 in this test?
active

###

# system: Muscarinic acetylcholine receptor M1 (Homo sapiens) (UniProt P11229)
# Sequence (P11229 whole entry, looked up): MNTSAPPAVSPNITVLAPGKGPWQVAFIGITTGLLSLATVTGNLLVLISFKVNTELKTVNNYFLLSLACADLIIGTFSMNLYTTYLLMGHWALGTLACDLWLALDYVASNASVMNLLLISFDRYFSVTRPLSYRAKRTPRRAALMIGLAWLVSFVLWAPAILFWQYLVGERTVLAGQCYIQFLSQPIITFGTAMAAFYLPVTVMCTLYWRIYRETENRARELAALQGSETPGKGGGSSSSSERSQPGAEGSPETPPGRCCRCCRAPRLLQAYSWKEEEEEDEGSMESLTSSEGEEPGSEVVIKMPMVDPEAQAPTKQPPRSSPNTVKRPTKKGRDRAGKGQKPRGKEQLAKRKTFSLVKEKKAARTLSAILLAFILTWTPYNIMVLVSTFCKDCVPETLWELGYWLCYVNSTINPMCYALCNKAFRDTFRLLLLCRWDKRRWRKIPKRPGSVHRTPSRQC
# method.summary: Cholinergic receptor muscarinic 1 (CHRM1) small molecule antagonists, cell-based qHTS assay (AID 1963588); note: nearly all actives have a fitted effect of over 40% in size
# experimental.parameters: CHRM1-CHO antagonist mode, calcium flux fluorescence; series mostly up to 61.5 µM
Results filed as inconclusive are left out. Calls of active or inactive are those of the source. Calls follow the shape of the full dose curve.
Respond using exactly one of the listed classes: active, inactive

1) COc1ccc(OC)c(CC(C)N)c1 (stereo not given) : inactive

Would you mind telling me which call this test gave [Cl-].[Cl-].[Cl-].[Yb+3] ?
inactive

Short answer needed: outcome of this test for FC(Cl)(Cl)C(F)(Cl)Cl ?
inactive

Record request — test call for C[C@]12CC[C@H]3[C@@H](CCC4=CC(=O)CC[C@@H]43)[C@@H]1CC[C@@H]2OC(=O)CCc1ccco1
active

Could you kindly confirm the outcome this assay logged for CC(O)C#N (stereo not given) ?
inactive
